# TARGET_ENTITY: IL-23 (p19/p40 heterodimer) (Homo sapiens, UniProt P29460;Q9NPF7 P29460:23-328,Q9NPF7:20-189)
# Sequence (P29460 23-328, chain 1 of 2): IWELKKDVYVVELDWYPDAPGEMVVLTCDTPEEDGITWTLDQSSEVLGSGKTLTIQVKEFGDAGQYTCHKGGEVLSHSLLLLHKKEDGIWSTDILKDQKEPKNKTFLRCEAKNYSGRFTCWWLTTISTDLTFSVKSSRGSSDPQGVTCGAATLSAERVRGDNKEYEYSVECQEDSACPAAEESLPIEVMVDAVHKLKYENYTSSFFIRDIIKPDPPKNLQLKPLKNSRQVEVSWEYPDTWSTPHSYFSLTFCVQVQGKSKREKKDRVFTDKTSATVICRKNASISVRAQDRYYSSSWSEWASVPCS
# Sequence (Q9NPF7 20-189, chain 2 of 2): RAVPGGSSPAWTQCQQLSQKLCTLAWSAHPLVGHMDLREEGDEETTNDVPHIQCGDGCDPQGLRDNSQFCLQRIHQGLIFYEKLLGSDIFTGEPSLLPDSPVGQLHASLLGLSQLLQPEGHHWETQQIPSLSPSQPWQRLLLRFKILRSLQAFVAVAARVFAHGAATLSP
# METHOD_DESCRIPTION: FP
# CONDITION_DESCRIPTION: label: 5'-32P
QUANTITY: Kd (nM)
Give bare numbers, in nM.

I have this binder here, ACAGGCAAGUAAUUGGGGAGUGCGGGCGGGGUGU (mixed, 2'-OMe at all C and all U and at G16, G17, G24, G25, G30, G31; all other nucleotides 2'-deoxy (all A deoxy); PS after positions 17, 18, 19, 21; 3' inverted dT) [ARC1623] , and I need its recorded Kd. 0.25
